# Test system: Woodchuck hepatitis virus
# experiment-notes: Antiviral activity against Woodchuck hepatitis virus infected in woodchuck assessed as reduction of viral RNA level per ug of total cell DNA at 15 mg/kg, po qd measured on 12th week on 48 weeks study (reference value: 46 +/- 25 pg)
# Assay type: functional
Each entry below lists one item and its recorded Activity value.
Reply with just the number (in pg).

compound | Activity, pg
CC(C)OC(=O)OCOP(=O)(CO[C@H](C)Cn1cnc2c(N)ncnc21)OCOC(=O)OC(C)C.O=C(O)/C=C/C(=O)O [TENOFOVIR DISOPROXIL FUMARATE] | 30

q: Data request, read-out Activity, for CC(C)(C)C(=O)OCOP(=O)(COCCn1cnc2c(N)ncnc21)OCOC(=O)C(C)(C)C
a: 33

q: Likewise for Nc1ccn([C@@H]2CS[C@H](CO)O2)c(=O)n1 ?
a: 39

q: Thanks! And Nc1nc(=O)n([C@@H]2CS[C@H](CO)O2)cc1F ?
a: 42

Ref: ChEMBL document CHEMBL1687712
